Attribution: patent US9839642B2

- system: IMP-1 (Serratia marcescens, UniProt P52699)
- Sequence (P52699 19-246, looked up, species assumed): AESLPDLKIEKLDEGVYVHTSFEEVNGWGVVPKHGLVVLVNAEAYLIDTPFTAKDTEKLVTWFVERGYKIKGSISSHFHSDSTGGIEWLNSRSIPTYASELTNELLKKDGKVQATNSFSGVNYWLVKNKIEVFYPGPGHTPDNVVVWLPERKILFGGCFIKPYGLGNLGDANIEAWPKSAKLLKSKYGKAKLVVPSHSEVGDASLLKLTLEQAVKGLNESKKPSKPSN
- assay method text: Enzyme activity: determination of IC50, fluorescence assay with CCF2-FA substrate
- Type: biochemical
- assay setup: IMP-1 enzyme 2 pM, CCF2-FA 1.25 μM, 2 hours at 25° C.; read-out: IMP1 IC50
This listing pairs molecules with measured IC50.
Write the number in nM without appending the unit.

Query :: For the molecule CCC[C@H](C(=O)O)[C@H](Cc1cc(C(F)(F)F)cc(C(F)(F)F)c1)c1nnn[nH]1 [Example 269] , what IC50 is on record?
Result :: 1500

Query :: Please look up its IC50: CCC[C@H](C(=O)[O-])[C@H](Cc1ccc(C[N+](C)(C)C)cc1)c1nnn[nH]1 [Example 419]
Result :: 5920

Query :: Param item = CC(C)C[C@H](C(=O)O)[C@H](Cc1ccc(NC2CCNC2)nc1)c1nnn[nH]1 (stereo partly shown) [Example 321] ; retrieve measured IC50.
Result :: 1600

====

- system: VIM-1 (Pseudomonas aeruginosa)
- assay method text: Enzyme activity: determination of IC50, fluorescence assay with CCF2-FA substrate
- Format: biochemical
- assay setup: VIM-1 enzyme 30 pM, CCF2-FA 1.25 μM, 2 hours at 25° C.; read-out: VIM1 IC50
pIC50: −log10 of the molar value.
Assign criterion met to entries whose pIC50 meets or exceeds 8; assign criterion not met to the rest.

Example entries begin here.
>  <molecule>
CC(C)(C)[C@H](C(=O)O)[C@H](Cc1ccc(NCCN)nc1)c1nnn[nH]1.O=C(O)C(F)(F)F [Example 427, 2,2,2-trifluoroacetate]

>  <qualitative label>
criterion not met

$$$$
>  <molecule>
CC(C)C[C@H](C(=O)O)[C@H](Cc1ccc(COCCN2CCNCC2)c(F)c1)c1nn[nH]n1.O=C(O)C(F)(F)F [Example 441]

>  <qualitative label>
criterion not met

$$$$

Query :: Given CCC[C@H](C(=O)O)[C@H](Cc1cccc2nsnc12)c1nnn[nH]1 [Example 272] , state whether its pIC50 is at least 8.
Result :: criterion met

Query :: Is reported pIC50 greater than or equal to 8 here: CCC[C@H](C(=O)O)[C@H](Cc1cccc(-c2ccccc2CN2CCCCC2)c1)c1nn[nH]n1 [Example 357]
Result :: criterion not met

Query :: Check the entry CC(C)C[C@H](C(=O)O)[C@H](Cc1ccc(CCCN)c(F)c1)c1nn[nH]n1.O=C(O)C(F)(F)F [Example 440, 2,2,2-trifluoroacetate] : does pIC50 equal or exceed 8?
Result :: criterion met

Query :: Dear colleague, could you confirm whether CCC[C@H](C(=O)O)[C@H](Cc1cccc(-c2cccc(OC3CCNCC3)n2)c1)c1nn[nH]n1 [Example 348] has pIC50 at or above 8?
Result :: criterion met

Query :: Reported pIC50 reaches at least 8 for CC(C)C[C@H](C(=O)O)[C@H](Cc1ccc(-c2ccc(CN)cc2)c(F)c1)c1nn[nH]n1 [Example 454, 2,2,2-trifluoroacetate] ?
Result :: criterion met

Query :: Entry CC(C)C[C@H](C(=O)O)[C@H](Cc1ccc(N2CC(N3CCN(C)CC3)C2)nc1)c1nnn[nH]1 [Example 332] : is its pIC50 no less than 8?
Result :: criterion not met

Query :: I'd appreciate it if you could say whether O=C(O)[C@@H](CC(F)(F)F)[C@H](Cc1ccc(NCCO)nc1)c1nnn[nH]1 [Example 436] has pIC50 at least equal to 8.
Result :: criterion not met

====

// reported IC50 for each item listed
- system: VIM-1 (Pseudomonas aeruginosa, UniProt A0A0F7KYQ8)
- assay method text: Enzyme activity: determination of IC50, fluorescence assay with CCF2-FA substrate
- Assay type: biochemical
- assay setup: VIM-1 enzyme 30 pM, CCF2-FA 1.25 μM, 2 hours at 25° C.; read-out: VIM1 IC50
Value expressed in nM; do not type the unit.

Worked cases, answers included:
>  <molecule>
CC(C)C[C@H](C(=O)O)[C@H](Cc1ccc(N2CCCC2c2ccccc2)nc1)c1nnn[nH]1 (stereo partly shown)

>  <units symbol>
nM

>  <IC50>
3.9

$$$$
>  <molecule>
CC(C)C[C@H](C(=O)O)[C@H](Cc1ccc(CN2CCC(N)CC2)c(F)c1)c1nn[nH]n1.O=C(O)C(F)(F)F [Example 444, 2,2,2-trifluoroacetate]

>  <units symbol>
nM

>  <IC50>
76.5

$$$$

Query :: // lookup IC50 for CCC[C@H](C(=O)[O-])[C@H](Cc1ccc(C2CCC[N+](C)(C)C2)nc1)c1nnn[nH]1 (stereo partly shown)
Result :: 78

Query :: IC50 lookup needed for CCC[C@H](C(=O)O)[C@H](Cc1cccc(N2CCCCC2)c1)c1nn[nH]n1 , thanks.
Result :: 9.7

====

- system: IMP-1 (Serratia marcescens, UniProt P52699)
- assay method text: Enzyme activity: determination of IC50, fluorescence assay with CCF2-FA substrate
- Type: biochemical
- assay setup: enzyme 2 pM, CCF2-FA 1.25 μM, 2 hours at 25° C.; read-out: IMP1 IC50
pIC50: −log10 of the molar value.
Everything with pIC50 lower than 6 is Not satisfied; everything else, including exactly 6, is Satisfied.

Use the examples below as a reference point.
>  <line notation>
CCC[C@H](C(=O)O)[C@H](Cc1ccc(C2=CCCN(C)C2)cc1)c1nnn[nH]1

>  <qualitative label>
Satisfied

$$$$
>  <line notation>
O=C(O)[C@@H](CC(F)F)[C@H](Cc1ccccc1)c1nnn[nH]1

>  <qualitative label>
Not satisfied

$$$$
>  <line notation>
CC(C)C[C@H](C(=O)O)[C@H](Cc1ccc(-c2ccnc(N)c2)nc1)c1nn[nH]n1

>  <qualitative label>
Satisfied

$$$$

Query :: Reported pIC50 reaches at least 6 for CC(C)[C@H](C(=O)O)[C@H](Cc1ccc(Br)nc1)c1nnn[nH]1 ?
Result :: Not satisfied

Query :: Reported pIC50 at or above 6? CCC[C@H](C(=O)O)[C@H](Cc1ccc(C(F)(F)F)cc1)c1nnn[nH]1
Result :: Satisfied

Query :: Decide: is the reported value of pIC50 for CCC[C@H](C(=O)O)[C@H](Cc1ccc(-c2ccc3c(c2)CCNC3)cc1)c1nnn[nH]1 equal to or greater than 6?
Result :: Satisfied

Query :: Textbook exercise: given the entry CCC[C@H](C(=O)O)[C@H](Cc1ccc(-c2csc(N3CCOCC3)n2)cc1)c1nn[nH]n1 , state whether its pIC50 is greater than or equal to 6.
Result :: Satisfied

Query :: Form field: pIC50 at least 6? Entry: CCCC[C@@H](C(=O)O)[C@@H](Cc1ccc(-c2cnn(-c3ccccc3)c2)cc1)c1nn[nH]n1
Result :: Satisfied

====

- system: NDM-1 (Klebsiella pneumoniae, UniProt C7C422)
- Sequence (C7C422 29-270, looked up, species assumed): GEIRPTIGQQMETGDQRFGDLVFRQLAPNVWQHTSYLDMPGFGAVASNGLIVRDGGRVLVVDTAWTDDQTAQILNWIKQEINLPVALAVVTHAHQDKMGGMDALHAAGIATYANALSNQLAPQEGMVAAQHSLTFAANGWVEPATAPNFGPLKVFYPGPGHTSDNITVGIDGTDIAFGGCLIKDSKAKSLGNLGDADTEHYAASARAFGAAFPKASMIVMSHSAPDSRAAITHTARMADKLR
- assay method text: Enzyme activity: determination of IC50, fluorescence assay with CCF2-FA substrate
- Assay type: biochemical
- assay setup: enzyme 1 pM, CCF2-FA 1.25 μM, 2 hours at 25° C.; read-out: NDM1 IC50
parameter: pIC50
Note: pIC50 values are expressed as the negative base-10 logarithm of concentration in M.

Query :: Using the record for CCC[C@H](C(=O)O)[C@H](Cc1cccc(C#N)c1)c1nn[nH]n1 [Example 41] , report its pIC50.
Result :: 7.22

Query :: Look at this compound and give its reported pIC50. CCC[C@H](C(=O)O)[C@H](Cc1cnc(N)s1)c1nnn[nH]1 [Example 115]
Result :: 6.77

Query :: Fill in: pIC50 of CC(C)C[C@H](C(=O)O)[C@H](Cc1ccc(S(C)(=O)=O)cc1)c1nn[nH]n1 [Example 50] is ___
Result :: 7.33

Query :: Fill blank: measured pIC50 of the compound O=C(O)[C@H](CCC1CCCCC1)[C@@H](Cc1ccccc1)c1nnn[nH]1 [Example 31] is ____.
Result :: 6.13

Query :: Give its pIC50 value. Item: CCC[C@H](C(=O)O)[C@H](Cc1cnc(N2CCNCC2)s1)c1nnn[nH]1 [Example 120]
Result :: 5.92

Query :: # input compound: CCC[C@H](C(=O)O)[C@H](Cc1ccc(-c2ccc(C(C)N3CCOCC3)cc2)cc1)c1nn[nH]n1 (some centres unmarked) [Example 192] ; wanted: its pIC50
Result :: 7.54

Query :: Look up pIC50 for this compound: CCC[C@H](C(=O)O)[C@H](Cc1ccc(S(=O)(=O)C2CC2)nc1)c1nnn[nH]1 [Example 86]
Result :: 6.89

Query :: Name the reported pIC50 value associated with the compound CCC[C@H](C(=O)O)[C@H](Cc1ccc(-c2ccc3ncnn3c2)cc1)c1nnn[nH]1 [Example 241]
Result :: 7.89

Query :: What value of pIC50 has been recorded for this entry: CCC[C@H](C(=O)O)[C@H](Cc1csc(N)n1)c1nnn[nH]1 [Example 150]
Result :: 6.32

Query :: Look up pIC50 for this compound: CC(C)[C@H](C(=O)O)[C@H](Cc1ccccc1)c1nnn[nH]1 [Example 20]
Result :: 7.59

Query :: What measured pIC50 goes with CC(C)CCC[C@@H](C(=O)O)[C@H](Cc1ccccc1)c1nnn[nH]1 [Example 2] ?
Result :: 5.27

Query :: Item under review: O=C(O)[C@@H](C1CCOC1)[C@H](Cc1ccc(C2=CCNC2)cc1)c1nnn[nH]1 (some centres unmarked) [Example 67] . Reported pIC50?
Result :: 6.05

Query :: Which pIC50 value is on record for CC(C)C[C@H](C(=O)O)[C@H](Cc1ccc(OCCN)nc1)c1nnn[nH]1 [Example 135] ?
Result :: 6.31

Query :: Look at this compound and give its reported pIC50. CCC[C@H](C(=O)O)[C@H](Cc1ccc(C2=CCNC2)nc1)c1nnn[nH]1 [Example 164]
Result :: 6.28

Query :: Quick one: pIC50 of O=C(O)CCCC[C@H](C(=O)O)[C@H](Cc1ccccc1)c1nnn[nH]1 [Example 34] ?
Result :: 6.70

Query :: Consider the compound shown here: CCC[C@H](C(=O)O)[C@H](Cc1ccc(-c2ccc(C3(O)CNC3)cc2)nc1)c1nnn[nH]1 [Example 159] What is its recorded pIC50?
Result :: 6.40

Query :: Form field: reported pIC50 of CCC[C@H](C(=O)O)[C@H](Cc1ccc(OCCN)nc1)c1nnn[nH]1 [Example 130]
Result :: 6.05
